Recorded measurements of Strain crossover (G'' > G'), 25 C, one per entry
SYSTEM_TESTED: the molecule itself
ASSAY_NAME: cell-based or functional assay
Please state the figure in % strain; there is no need to write the unit.

Please report the recorded Strain crossover (G'' > G'), 25 C for T40A mutant (SEQ ID NO: 82) (designed binder) MRGSHHHHHHGSGRGDSGSGSGSGSGSGSGAPQMLRELQEANAALQDVRELLRQQVKEITFLKNTVMESDASGSGSGSGSGSVDGSPAGSPTSTEEGTSESATPESGPGTSTEPSEGSAPGSPAGSPTSTEEGTSTEPSEGSAPGTSTEPSEGSAPGTSESATPESGPGSEPATSGSETPGSEPATSGSETPGSPAGSPTSTEEGTSESATPESGPGTSTEPSEGSAPLESGSGSGSGSGSGAPQMLRELQEANAALQDVRELLRQQVKEITFLKNTVMESDASGSGSGSGSGSGSGRGDSHHHHHHKLN .
127

One more protein: Q54A mutant (SEQ ID NO: 83) (designed binder) MRGSHHHHHHGSGRGDSGSGSGSGSGSGSGAPQMLRELQETNAALQDVRELLRQAVKEITFLKNTVMESDASGSGSGSGSGSVDGSPAGSPTSTEEGTSESATPESGPGTSTEPSEGSAPGSPAGSPTSTEEGTSTEPSEGSAPGTSTEPSEGSAPGTSESATPESGPGSEPATSGSETPGSEPATSGSETPGSPAGSPTSTEEGTSESATPESGPGTSTEPSEGSAPLESGSGSGSGSGSGAPQMLRELQETNAALQDVRELLRQAVKEITFLKNTVMESDASGSGSGSGSGSGSGRGDSHHHHHHKLN
116

Switching to the query record.
Please report the recorded Strain crossover (G'' > G'), 25 C for T40A+Q54A mutant (SEQ ID NO: 84) (designed binder) MRGSHHHHHHGSGRGDSGSGSGSGSGSGSGAPQMLRELQEANAALQDVRELLRQAVKEITFLKNTVMESDASGSGSGSGSGSVDGSPAGSPTSTEEGTSESATPESGPGTSTEPSEGSAPGSPAGSPTSTEEGTSTEPSEGSAPGTSTEPSEGSAPGTSESATPESGPGSEPATSGSETPGSEPATSGSETPGSPAGSPTSTEEGTSESATPESGPGTSTEPSEGSAPLESGSGSGSGSGSGAPQMLRELQEANAALQDVRELLRQAVKEITFLKNTVMESDASGSGSGSGSGSGSGRGDSHHHHHHKLN .
119
